For each of the molecules below, state its IC50.
Just the number in nM, nothing appended.

Reported IC50 for BRM (Homo sapiens, UniProt P51531), given O=C(NCc1cc2nc(N3CCCc4sc(C(F)F)nc43)ccc2cn1)c1cc(F)c2c(c1)S(=O)(=O)[C@@H](F)CCO2 [Compound 217] ?
6.5

Reported IC50 for BRM (Homo sapiens, UniProt P51531), given COCc1ccnc2c1OCCN2c1ccc2cnc(CNC(=O)c3cc(F)c4c(c3)S(=O)(=O)[C@@H](F)CCO4)cc2n1 [Compound 147] ?
4.8

Reported IC50 for BRM (Homo sapiens, UniProt P51531), given O=C(NCc1cc2nc(N3CCOc4cc(N5CCC(F)CC5)cnc43)ccc2cn1)c1cc(F)c2c(c1)S(=O)(=O)[C@@H](F)CCO2 [Compound 204] ?
6.1

Reported IC50 for BRM (Homo sapiens, UniProt P51531), given COc1nc(C(F)F)ccc1-c1ccc2cnc(CNC(=O)c3cc(Cl)c4c(c3)S(=O)(=O)[C@@H](F)CCO4)cc2n1 [Compound 306] ?
10.3

Reported IC50 for BRM (Homo sapiens, UniProt P51531), given COc1nc(C)ccc1-c1ccc2cnc(CNC(=O)c3cc(F)c4c(c3)S(=O)(=O)[C@@H](F)CCO4)cc2n1 [Compound 245] ?
7.8

Reported IC50 for BRM (Homo sapiens, UniProt P51531), given COc1ccc(-c2ccc3cnc(CNC(=O)c4cc(Cl)c5c(c4)S(=O)(=O)[C@@H](F)COC5)cc3n2)nc1[C@@H]1CC1(F)F [Compound 294] ?
9.8

Reported IC50 for BRM (Homo sapiens, UniProt P51531), given COc1cnc2c(c1)OCCN2c1ccc2cnc(CNC(=O)c3cc(F)c4c(c3)S(=O)(=O)[C@@H](F)CCO4)cc2c1 [Compound 153] ?
5

----------
measured_target: BRG-1 (Homo sapiens)
Construct: made in house; host or cells: High Five insect cells
Sequence (P51532 whole entry): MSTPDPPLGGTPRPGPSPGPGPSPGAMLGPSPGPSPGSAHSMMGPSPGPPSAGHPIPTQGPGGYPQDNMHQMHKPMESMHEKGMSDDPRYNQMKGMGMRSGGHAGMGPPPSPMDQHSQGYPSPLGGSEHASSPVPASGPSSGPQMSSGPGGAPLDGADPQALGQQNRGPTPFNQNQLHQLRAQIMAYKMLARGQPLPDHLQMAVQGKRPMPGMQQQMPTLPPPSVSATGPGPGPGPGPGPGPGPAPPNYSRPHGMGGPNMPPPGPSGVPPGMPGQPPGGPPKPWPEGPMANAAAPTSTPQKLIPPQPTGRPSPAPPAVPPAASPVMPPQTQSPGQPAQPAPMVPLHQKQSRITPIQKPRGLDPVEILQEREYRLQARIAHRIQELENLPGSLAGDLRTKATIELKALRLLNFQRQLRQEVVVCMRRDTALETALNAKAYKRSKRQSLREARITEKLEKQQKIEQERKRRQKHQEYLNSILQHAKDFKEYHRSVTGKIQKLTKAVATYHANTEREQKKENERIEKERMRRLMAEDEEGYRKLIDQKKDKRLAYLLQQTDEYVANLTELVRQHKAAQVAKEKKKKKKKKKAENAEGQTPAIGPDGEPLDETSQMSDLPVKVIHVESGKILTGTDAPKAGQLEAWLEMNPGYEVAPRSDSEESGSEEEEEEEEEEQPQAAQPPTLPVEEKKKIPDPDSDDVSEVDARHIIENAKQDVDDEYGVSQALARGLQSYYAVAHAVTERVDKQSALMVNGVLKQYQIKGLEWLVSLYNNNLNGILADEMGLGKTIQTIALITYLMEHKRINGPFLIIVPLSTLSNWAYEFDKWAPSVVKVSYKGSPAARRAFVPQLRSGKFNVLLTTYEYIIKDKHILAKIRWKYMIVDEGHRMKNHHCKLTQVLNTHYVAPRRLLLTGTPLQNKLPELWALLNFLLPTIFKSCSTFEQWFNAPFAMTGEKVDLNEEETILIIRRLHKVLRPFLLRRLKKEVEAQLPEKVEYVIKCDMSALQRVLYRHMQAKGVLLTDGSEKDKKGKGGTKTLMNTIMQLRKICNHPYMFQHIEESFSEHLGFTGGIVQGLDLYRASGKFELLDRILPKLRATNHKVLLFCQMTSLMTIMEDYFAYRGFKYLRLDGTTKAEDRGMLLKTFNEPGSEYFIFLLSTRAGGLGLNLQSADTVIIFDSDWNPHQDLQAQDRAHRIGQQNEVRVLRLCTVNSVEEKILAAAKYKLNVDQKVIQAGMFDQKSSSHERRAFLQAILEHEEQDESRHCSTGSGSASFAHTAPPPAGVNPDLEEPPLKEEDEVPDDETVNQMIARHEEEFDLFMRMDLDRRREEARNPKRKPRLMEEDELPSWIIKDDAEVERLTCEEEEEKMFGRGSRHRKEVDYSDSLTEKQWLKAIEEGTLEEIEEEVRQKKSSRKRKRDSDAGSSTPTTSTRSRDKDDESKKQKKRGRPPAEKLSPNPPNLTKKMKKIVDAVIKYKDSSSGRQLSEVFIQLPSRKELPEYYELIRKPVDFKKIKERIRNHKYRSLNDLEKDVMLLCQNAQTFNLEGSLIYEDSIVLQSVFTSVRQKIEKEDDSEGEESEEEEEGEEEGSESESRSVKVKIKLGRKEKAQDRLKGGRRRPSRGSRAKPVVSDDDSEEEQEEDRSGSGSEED
protocol_details: ATPase catalytic activity assay (ADP-Glo), BRG-1
Format: biochemical
assay_setup: Table 10, read-out: BRG1 IC50
For each of the compounds below, state its IC50.
Just the number in nM, nothing appended.

Any idea what its IC50 is? The compound is "C#Cc1cc(C(=O)NCc2cc3nc(-c4cccc(N5C[C@@H](C)O[C@@H](C)C5)n4)ccc3cn2)cc2c1OCC[C@H](F)S2(=O)=O"
4130

Any idea what its IC50 is? The compound is "COc1nc([C@H](F)CF)ccc1-c1ccc2cnc(CNC(=O)c3cc(F)c4c(c3)S(=O)(=O)[C@@H](F)CCO4)cc2n1"
123

Any idea what its IC50 is? The compound is "O=C(NCc1cc2nc(-c3ccnc([C@H]4CC4(F)F)n3)ccc2cn1)c1cc(F)c2c(c1)S(=O)(=O)[C@@H](F)CCO2"
168

----------
Test system: BRM-dependent transcription (BRG1 mutant lung cancer cell line A549)
protocol_details: BRM-dependent transcription, MMTV luciferase reporter in BRG1 mutant A549 cells
Type: cell-based
assay_setup: MMTV luciferase reporter cell lines, selectivity BRG1/BRM, Table 11
For each of the molecules below, state its Ratio (MDA-MMTV IC50 (μM) divided by A549-MMTV IC50 (μM)).
Give only the figure.

Any idea what its Ratio (MDA-MMTV IC50 (μM) divided by A549-MMTV IC50 (μM)) is? The molecule is O=C(NCc1cc2nc(-c3ccc([C@@H](F)C(F)F)c(C4CC4)n3)ccc2cn1)c1cc(C(F)F)c2c(c1)S(=O)(=O)[C@@H](F)COC2 [Compound 476]
21.45

Any idea what its Ratio (MDA-MMTV IC50 (μM) divided by A549-MMTV IC50 (μM)) is? The molecule is O=C(NCc1cc2nc(-c3ccc(OC(F)F)c(C4CC4)n3)ccc2cn1)c1cc(Br)c2c(c1)S(=O)(=O)[C@@H](F)COC2 [Compound 408]
32.34

Any idea what its Ratio (MDA-MMTV IC50 (μM) divided by A549-MMTV IC50 (μM)) is? The molecule is COc1ccc(-c2ccc3cnc(CNC(=O)c4cc(C(F)F)c5c(c4)S(=O)(=O)[C@@H](F)COC5)cc3n2)nc1C1CC1(F)F (stereo partly drawn) [Compound 434]
41.19

Any idea what its Ratio (MDA-MMTV IC50 (μM) divided by A549-MMTV IC50 (μM)) is? The molecule is CCOc1ccc(-c2ccc3cnc(CNC(=O)c4cc(C(F)F)c5c(c4)S(=O)(=O)[C@@H](F)COC5)cc3n2)nc1C1CC1(F)F (stereo partly drawn) [Compound 416]
50.12

Any idea what its Ratio (MDA-MMTV IC50 (μM) divided by A549-MMTV IC50 (μM)) is? The molecule is COc1nc(C(F)F)ccc1-c1ccc2cnc(CNC(=O)c3cc(Br)c4c(c3)S(=O)(=O)[C@@H](F)COC4)cc2n1 [Compound 410]
27.39

Any idea what its Ratio (MDA-MMTV IC50 (μM) divided by A549-MMTV IC50 (μM)) is? The molecule is CCOc1nn(-c2ccc3cnc(CNC(=O)c4cc(C(F)F)c5c(c4)S(=O)(=O)[C@@H](F)COC5)cc3n2)cc1F [Compound 501]
30.55

Any idea what its Ratio (MDA-MMTV IC50 (μM) divided by A549-MMTV IC50 (μM)) is? The molecule is Cc1cc(C(=O)NCc2cc3nc(-c4ccc(C(F)F)c(C5CC5)n4)ccc3cn2)cc2c1OCC[C@H](F)S2(=O)=O [Compound 385]
22.49

Any idea what its Ratio (MDA-MMTV IC50 (μM) divided by A549-MMTV IC50 (μM)) is? The molecule is [2H]C([2H])([2H])C([2H])([2H])Oc1nc([C@@H](F)CF)ccc1-c1ccc2cnc(CNC(=O)c3cc(Br)c4c(c3)S(=O)(=O)[C@@H](F)COC4)cc2n1 [Compound 489]
35.95

Any idea what its Ratio (MDA-MMTV IC50 (μM) divided by A549-MMTV IC50 (μM)) is? The molecule is CCOc1nn(-c2ccc3cnc(CNC(=O)c4cc(Cl)c5c(c4)S(=O)(=O)[C@@H](F)COC5)cc3n2)cc1F [Compound 472]
39.75

----------
measured_target: BRM (Homo sapiens, UniProt P51531)
Construct: made in house; host or cells: High Five insect cells
Sequence (P51531 whole entry): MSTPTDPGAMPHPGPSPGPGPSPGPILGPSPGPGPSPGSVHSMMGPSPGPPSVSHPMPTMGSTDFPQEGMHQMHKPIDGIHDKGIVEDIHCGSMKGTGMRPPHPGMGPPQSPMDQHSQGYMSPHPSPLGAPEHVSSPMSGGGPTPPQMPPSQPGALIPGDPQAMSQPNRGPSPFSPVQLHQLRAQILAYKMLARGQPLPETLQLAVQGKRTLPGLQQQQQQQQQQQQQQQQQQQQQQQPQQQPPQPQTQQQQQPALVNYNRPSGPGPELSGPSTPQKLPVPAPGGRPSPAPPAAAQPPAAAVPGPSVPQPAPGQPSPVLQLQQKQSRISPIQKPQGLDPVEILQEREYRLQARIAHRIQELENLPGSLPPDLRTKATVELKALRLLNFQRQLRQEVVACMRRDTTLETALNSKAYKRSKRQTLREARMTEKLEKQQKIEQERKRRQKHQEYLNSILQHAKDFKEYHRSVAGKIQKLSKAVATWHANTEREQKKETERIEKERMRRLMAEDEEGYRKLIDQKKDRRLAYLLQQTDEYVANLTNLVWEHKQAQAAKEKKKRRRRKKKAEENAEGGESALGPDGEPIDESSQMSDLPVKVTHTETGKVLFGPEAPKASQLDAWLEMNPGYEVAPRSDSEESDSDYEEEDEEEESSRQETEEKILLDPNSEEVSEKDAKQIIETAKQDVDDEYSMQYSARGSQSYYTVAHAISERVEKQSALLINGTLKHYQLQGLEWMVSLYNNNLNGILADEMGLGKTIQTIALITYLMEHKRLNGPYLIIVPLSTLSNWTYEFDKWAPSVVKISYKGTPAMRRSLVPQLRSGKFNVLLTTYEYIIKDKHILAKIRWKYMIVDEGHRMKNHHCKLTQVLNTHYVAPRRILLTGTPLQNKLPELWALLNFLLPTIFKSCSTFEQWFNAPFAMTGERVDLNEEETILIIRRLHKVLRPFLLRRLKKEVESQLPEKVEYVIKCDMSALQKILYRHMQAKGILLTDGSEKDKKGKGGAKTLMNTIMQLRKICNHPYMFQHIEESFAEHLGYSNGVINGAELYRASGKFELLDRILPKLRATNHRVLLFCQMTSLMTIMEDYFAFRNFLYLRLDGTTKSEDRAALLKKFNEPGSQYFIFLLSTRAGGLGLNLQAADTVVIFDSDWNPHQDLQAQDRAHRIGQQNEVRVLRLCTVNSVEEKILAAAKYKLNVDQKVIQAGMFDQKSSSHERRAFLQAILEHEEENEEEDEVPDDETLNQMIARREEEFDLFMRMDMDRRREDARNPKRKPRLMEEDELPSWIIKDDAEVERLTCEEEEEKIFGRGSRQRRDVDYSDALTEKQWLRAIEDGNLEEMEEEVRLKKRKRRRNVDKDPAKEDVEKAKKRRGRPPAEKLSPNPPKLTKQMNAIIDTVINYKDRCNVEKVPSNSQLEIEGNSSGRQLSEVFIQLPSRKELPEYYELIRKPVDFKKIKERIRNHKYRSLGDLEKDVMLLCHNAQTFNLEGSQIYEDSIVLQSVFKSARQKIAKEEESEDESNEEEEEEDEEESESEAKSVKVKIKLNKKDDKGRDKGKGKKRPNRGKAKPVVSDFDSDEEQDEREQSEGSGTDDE
protocol_details: ATPase catalytic activity assay (ADP-Glo), BRM
Format: biochemical
assay_setup: ATPase assay, selectivity BRG1/BRM, Table 10
For each of the compounds below, state its Ratio (BRG1 IC50 (μM) divided by BRM IC50 (μM)).
Give only the figure.

Reported Ratio (BRG1 IC50 (μM) divided by BRM IC50 (μM)) for BRM (Homo sapiens, UniProt P51531), given "CO[C@H]1CN(c2cccc(-c3ccc4cnc(CNC(=O)c5cc(F)c6c(c5)S(=O)(=O)[C@@H](F)CCO6)cc4n3)n2)C[C@@H]1F" ?
17.66

Reported Ratio (BRG1 IC50 (μM) divided by BRM IC50 (μM)) for BRM (Homo sapiens, UniProt P51531), given "C[C@H](F)c1cnc2c(c1)OCCN2c1ccc2cnc(CNC(=O)c3cc(F)c4c(c3)S(=O)(=O)[C@@H](F)CCO4)cc2n1" ?
17.01

Reported Ratio (BRG1 IC50 (μM) divided by BRM IC50 (μM)) for BRM (Homo sapiens, UniProt P51531), given "COc1nc(C(F)F)ccc1-c1ccc2cnc(CNC(=O)c3cc(F)c4c(c3)S(=O)(=O)[C@@H](F)COC4)c(F)c2n1" ?
10.82

Reported Ratio (BRG1 IC50 (μM) divided by BRM IC50 (μM)) for BRM (Homo sapiens, UniProt P51531), given "C[C@@H](F)c1cnc2c(c1)OCCN2c1ccc2cnc(CNC(=O)c3cc(F)c4c(c3)S(=O)(=O)[C@@H](F)CCO4)cc2n1" ?
22.22

Reported Ratio (BRG1 IC50 (μM) divided by BRM IC50 (μM)) for BRM (Homo sapiens, UniProt P51531), given "COCCOc1nccc2c1CCCN2c1ccc2cnc(CNC(=O)c3cc(F)c4c(c3)S(=O)(=O)[C@@H](F)CCO4)cc2n1" ?
16.68

Reported Ratio (BRG1 IC50 (μM) divided by BRM IC50 (μM)) for BRM (Homo sapiens, UniProt P51531), given "Cc1cnc2c(c1)OCCN2c1ccc2cnc(CNC(=O)c3cc(F)c4c(c3)S(=O)(=O)[C@@H](F)CCO4)cc2n1" ?
18.72

Reported Ratio (BRG1 IC50 (μM) divided by BRM IC50 (μM)) for BRM (Homo sapiens, UniProt P51531), given "C[C@@H]1CN(c2cccc(-c3ccc4nnc(CNC(=O)c5cc(Cl)c6c(c5)S(=O)(=O)[C@@H](F)CCO6)cc4c3)n2)C[C@H](C)O1" ?
14.03

Reported Ratio (BRG1 IC50 (μM) divided by BRM IC50 (μM)) for BRM (Homo sapiens, UniProt P51531), given "CCOCc1cnc2c(c1)OCCN2c1ccc2cnc(CNC(=O)c3cc(F)c4c(c3)S(=O)(=O)[C@@H](F)CCO4)cc2n1" ?
15.21

Reported Ratio (BRG1 IC50 (μM) divided by BRM IC50 (μM)) for BRM (Homo sapiens, UniProt P51531), given "O=C(NCc1cc2nc(N3CCOc4cc(C5CC5)cnc43)ccc2cn1)c1cc(Cl)c2c(c1)S(=O)(=O)[C@@H](F)COC2" ?
21.08

Reported Ratio (BRG1 IC50 (μM) divided by BRM IC50 (μM)) for BRM (Homo sapiens, UniProt P51531), given "O=C(NCc1cc2nc(N3CCOc4cc(F)c(C(F)F)nc43)ccc2cn1)c1cc(F)c2c(c1)S(=O)(=O)[C@@H](F)CCO2" ?
15.65

Reported Ratio (BRG1 IC50 (μM) divided by BRM IC50 (μM)) for BRM (Homo sapiens, UniProt P51531), given "O=C(NCc1cc2nc(N3CCOc4cc(N5C[C@@H](F)[C@@H](F)C5)cnc43)ccc2cn1)c1cc(F)c2c(c1)S(=O)(=O)[C@@H](F)CCO2" ?
15.93

Reported Ratio (BRG1 IC50 (μM) divided by BRM IC50 (μM)) for BRM (Homo sapiens, UniProt P51531), given "C[C@@H]1CN(c2cccc(-c3ccc4cnc(CNC(=O)c5cc(F)c6c(c5)S(=O)(=O)[C@@H](F)CO[C@@H]6C)cc4n3)n2)C[C@H](C)O1" ?
20.63
